These data points were gathered from ChEMBL document CHEMBL1153538.

System: Leishmania donovani
Measurement notes: Antileishmanial activity against Leishmania donovani MHOM/IN/Dd8 […] carrying firefly luciferase gene infected in mouse J774A1 cells assessed as relative luminescence unit at 10 ug/mL after 72 hrs
Format: functional
Condition label: MHOM/IN/Dd8, J774.A1, 72 h
Please mark Criterion met if the recorded inhibition at 10 µg/mL is equal to or greater than 80%, and Criterion not met if it falls below.

Check out these entries, answers already filled in.
- Smiles str: "O=C1NC(=S)N/C1=C\\c1cn(CCCCCOc2ccccc2)c2ccccc12"
  Class label: "Criterion not met"
- Smiles str: "N#Cc1ccc(OCCCCn2cc(/C=C3\\NC(=S)NC3=O)c3ccccc32)cc1"
  Class label: "Criterion not met"

Please indicate if the recorded inhibition at 10 µg/mL for CN1C(=S)NC(=O)/C1=C\c1cn(CCCCCOc2ccc(C#N)cc2)c2ccccc12 meets or exceeds 80%.
Criterion not met

Please indicate if the recorded inhibition at 10 µg/mL for N#Cc1ccc(OCCCCCn2cc(/C=C3\N/C(=N/c4ccccc4)NC3=O)c3ccccc32)cc1 meets or exceeds 80%.
Criterion met

Please indicate if the recorded inhibition at 10 µg/mL for CCCC/N=C1\NC(=O)/C(=C/c2cn(CCCCCOc3ccc(C#N)cc3)c3ccccc23)N1 meets or exceeds 80%.
Criterion met

Please indicate if the recorded inhibition at 10 µg/mL for N#Cc1ccc(OCCCCCCn2cc(/C=C3\NC(=S)NC3=O)c3ccccc32)cc1 meets or exceeds 80%.
Criterion not met

====

Test system: J774.A1
Measurement notes: Cytotoxicity against mouse J774A1 by MTT assay
Format: cell-based
Below: a set of entries, each annotated with reported IC50.

- Smiles str: "N#Cc1ccc(OCCCCCn2cc(/C=C3\\NC(=O)NC3=O)c3ccccc32)cc1"
  IC50: "33 µg/mL"

Given the entry CN1C(=S)NC(=O)/C1=C\c1cn(CCCCCOc2ccc(C#N)cc2)c2ccccc12 , report its measured IC50.
14.8 µg/mL

Given the entry O=C1NC(=S)N/C1=C\c1cn(CCCCCN2CCN(c3ccccc3)CC2)c2ccccc12 , report its measured IC50.
> 100 µg/mL

Given the entry CSC1=N/C(=C\c2cn(CCCCCOc3ccc(C#N)cc3)c3ccccc23)C(=O)N1C , report its measured IC50.
> 100 µg/mL

Given the entry N#Cc1ccc(OCCCCCCn2cc(/C=C3\NC(=S)NC3=O)c3ccccc32)cc1 , report its measured IC50.
2.3 µg/mL

Given the entry O=C1NC(=S)N/C1=C\c1cn(CCCCCOc2ccccc2)c2ccccc12 , report its measured IC50.
> 100 µg/mL

Given the entry CSC1=N/C(=C\c2cn(CCCCCOc3ccc(C#N)cc3)c3ccccc23)C(=O)N1 , report its measured IC50.
> 100 µg/mL

Given the entry N#Cc1ccc(OCCCCn2cc(/C=C3\NC(=S)NC3=O)c3ccccc32)cc1 , report its measured IC50.
> 100 µg/mL

====

Tested on: Leishmania donovani
Measurement notes: Antileishmanial activity against Leishmania donovani MHOM/IN/Dd8 […] carrying firefly luciferase gene infected in mouse J774A1 cells assessed as relative luminescence unit at 10 ug/mL after 72 hrs
Format: functional
Condition label: MHOM/IN/Dd8, J774.A1, 72 h
Below: a set of entries, each annotated with reported inhibition at 10 µg/mL.
Write your answer as a measured quantity: the number, then the unit.

These recorded examples may help you get a feel for the data.
- Smiles str: "CSC1=N/C(=C\\c2cn(CCCCCOc3ccc(C#N)cc3)c3ccccc23)C(=O)N1C"
  inhibition at 10 µg/mL: "63.2%"
- Smiles str: "N#Cc1ccc(OCCCCCn2cc(/C=C3\\N/C(=N/Cc4ccccc4)NC3=O)c3ccccc32)cc1"
  inhibition at 10 µg/mL: "93.9%"

Continue with the compound presented below.
Given the entry O=C1NC(=S)N/C1=C\c1cn(CCCCCN2CCN(c3ccccc3)CC2)c2ccccc12 , report its measured inhibition at 10 µg/mL.
88.3%

====

System: Leishmania donovani
Measurement notes: Antileishmanial activity against Leishmania donovani MHOM/IN/Dd8 […] carrying firefly luciferase gene infected in mouse J774A1 cells assessed as relative luminescence unit at 10 ug/mL after 72 hrs
Format: functional
Condition label: MHOM/IN/Dd8, J774.A1, 72 h
Below: a set of entries, each annotated with reported inhibition at 10 µg/mL.
Kindly provide the numeric value in % only, without the unit symbol.

These recorded examples may help you get a feel for the data.
- Smiles str: "COc1ccc(C/N=C2\\NC(=O)/C(=C/c3cn(CCCCCOc4ccc(C#N)cc4)c4ccccc34)N2)cc1OC"
  inhibition at 10 µg/mL (%): 93.7
- Smiles str: "N#Cc1ccc(OCCCCCn2cc(/C=C3\\NC(=S)NC3=O)c3ccccc32)cc1"
  inhibition at 10 µg/mL (%): 95.1

Given the entry CSC1=N/C(=C\c2cn(CCCCCOc3ccc(C#N)cc3)c3ccccc23)C(=O)N1 , report its measured inhibition at 10 µg/mL.
75.4

Given the entry CN1C(=S)NC(=O)/C1=C\c1cn(CCCCCOc2ccc(/C(N)=N/O)cc2)c2ccccc12 , report its measured inhibition at 10 µg/mL.
88.2
